experimental.target: TNAP (Homo sapiens, UniProt P05186)
Construct: made in house; host or cells: COS-1 cells, transient expression; dialyzed serum-free conditioned medium
Sequence (P05186 18-501 limits assumed): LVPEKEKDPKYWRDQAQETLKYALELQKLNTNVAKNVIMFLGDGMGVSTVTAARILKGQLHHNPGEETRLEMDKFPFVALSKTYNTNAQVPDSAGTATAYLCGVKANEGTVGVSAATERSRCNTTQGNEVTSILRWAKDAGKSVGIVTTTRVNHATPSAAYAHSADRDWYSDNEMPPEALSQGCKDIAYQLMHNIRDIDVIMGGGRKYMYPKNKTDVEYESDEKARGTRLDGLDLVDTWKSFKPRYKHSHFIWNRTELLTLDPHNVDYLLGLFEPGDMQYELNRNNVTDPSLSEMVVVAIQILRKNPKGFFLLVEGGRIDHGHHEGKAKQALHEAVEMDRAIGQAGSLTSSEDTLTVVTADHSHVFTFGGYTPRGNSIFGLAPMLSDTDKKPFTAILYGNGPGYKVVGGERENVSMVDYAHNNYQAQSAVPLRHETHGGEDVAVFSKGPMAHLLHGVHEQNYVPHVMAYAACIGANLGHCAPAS
protocol.description: TNAP luminescent assay (CDP-star substrate, 100 mM DEA)
Type: biochemical
protocol.conditions: read-out: TNAP IC50, luminescent assay
quantity.name: pIC50
Hey, just a heads up that pIC50 is the negative log base 10 of the concentration in molar.

I have this molecule here, O=C(NCCO)c1cc(-c2ccc(Cl)c(Cl)c2Cl)n[nH]1 , and I need its recorded pIC50.
8.28

----------
experimental.target: IAP (Homo sapiens)
Construct: made in house; host or cells: COS-1 cells, transient expression; dialyzed serum-free conditioned medium
Sequence (P09923 20-503 limits assumed): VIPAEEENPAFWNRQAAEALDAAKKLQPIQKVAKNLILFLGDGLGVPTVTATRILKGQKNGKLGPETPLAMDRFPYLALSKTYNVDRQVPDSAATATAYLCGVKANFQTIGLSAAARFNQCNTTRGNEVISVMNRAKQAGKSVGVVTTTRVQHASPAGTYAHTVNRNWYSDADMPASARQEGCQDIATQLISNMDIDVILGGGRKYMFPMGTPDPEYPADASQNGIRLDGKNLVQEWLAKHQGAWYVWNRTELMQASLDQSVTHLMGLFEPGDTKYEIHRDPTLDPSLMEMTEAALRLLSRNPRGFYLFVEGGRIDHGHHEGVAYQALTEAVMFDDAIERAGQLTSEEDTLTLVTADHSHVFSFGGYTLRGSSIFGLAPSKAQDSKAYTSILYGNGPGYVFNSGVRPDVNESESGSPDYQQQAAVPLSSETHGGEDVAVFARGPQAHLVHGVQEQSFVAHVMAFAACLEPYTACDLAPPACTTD
protocol.description: IAP luminescent assay (CDP-star)
Assay type: biochemical
protocol.conditions: unit not printed in Table 8 ([…]); n=7; read-out: IAP-Lumi
quantity.name: pIC50
The value called pIC50 is obtained by taking minus log10 of the concentration in mol/L.

What does the data say about its pIC50? Entry: O=C1C2CC=CCC2C(=O)N1c1nc(-c2ccccc2)n[nH]1 (stereo not shown)
6.91

All values here come from paper PMC3392958.
